# System: A549
# Assay comment: Cytotoxicity against human A549 cells incubated for 72 hrs by CCK-8 assay
# Format: functional, cell-based
# Assay context: A549, 72 h
Test readout: IC50 (nM)
Answer in nM, number only, no unit symbol.

// query Entry under review: `O=C1c2ccccc2C(=O)c2c3c(cc(O)c21)[C@@]12O[C@@]1([C@H](O)CO)[C@H](C#C/C=C\C#C[C@H]2O)N3` . Reported IC50?
// result 0.2

// query // next record `COC(=O)[C@@H](O)[C@@](C)(O)[C@@]12O[C@]13c1cc(O)c4c(c1N[C@H]2C#C/C=C\C#C[C@H]3O)C(=O)c1cc(OC)ccc1C4=O`
// result 2.8

// query What would you report for `O=C1c2cccc(O)c2C(=O)c2c3c(cc(O)c21)[C@@]12O[C@@]1([C@H](O)CO)[C@H](C#C/C=C\C#C[C@H]2O)N3` ?
// result 0.2

// query Same thing, different compound: `COc1cc(Br)c2c(c1O)C(=O)c1c3c(cc(O)c1C2=O)[C@@]12O[C@@]1([C@@H](C)O)[C@H](C#C/C=C\C#C[C@H]2O)N3`
// result 11

// query Request: `COc1ccc2c(c1O)C(=O)c1c3c(cc(O)c1C2=O)[C@@]12O[C@@]1([C@@H](C)O)[C@H](C#C/C=C\C#C[C@H]2O)N3`
// result 0.04

###

# Assay comment: Cytotoxicity against human NCM460 cells incubated for 72 hrs by CCK-8 assay
# Assay type: toxicity, cell-based
Param label: returns Satisfied when IC50 at 72 h < 3 nM, returns Not satisfied otherwise, including exact equality.

// query State whether 3 nM exceeds IC50 at 72 h recorded for C[C@@H](O)C12O[C@]13c1cc(O)c4c(c1N[C@H]2C#C/C=C\C#C[C@H]3O)C(=O)c1c(O)cccc1C4=O (stereo partly specified) .
// result Satisfied

// query Can you handle `O=C1c2cccc(O)c2C(=O)c2c3c(cc(O)c21)[C@@]12O[C@@]1([C@H](O)CO)[C@H](C#C/C=C\C#C[C@H]2O)N3` next?
// result Satisfied

// query Param item: `COc1cc(Br)c2c(c1O)C(=O)c1c3c(cc(O)c1C2=O)[C@@]12O[C@@]1([C@@H](C)O)[C@H](C#C/C=C\C#C[C@H]2O)N3`
// result Not satisfied

// query Then this molecule: `COc1ccc2c(c1OC)C(=O)c1c3c(cc(O)c1C2=O)[C@@]12O[C@@]1([C@@H](C)O)[C@H](C#C/C=C\C#C[C@H]2O)N3`
// result Not satisfied

// query Another molecule to look at: `O=C1c2ccccc2C(=O)c2c3c(cc(O)c21)[C@@]12O[C@@]1([C@H](O)CO)[C@H](C#C/C=C\C#C[C@H]2O)N3`
// result Satisfied

// query Further, for `COc1ccc2c(c1O)C(=O)c1c3c(cc(O)c1C2=O)[C@@]12O[C@@]1([C@](C)(O)[C@H](O)C(=O)O)[C@H](C#C/C=C\C#C[C@H]2O)N3` ?
// result Satisfied

###

Would you kindly list IC50 for each of these molecules?
# System: A549
# Assay comment: Cytotoxicity against human A549 cells incubated for 72 hrs by CCK-8 assay
# Format: functional, cell-based
# Assay context: A549, 72 h
Provide the reading as a plain figure in nM.

// query Which IC50 value is on record for `COC(=O)[C@@H](O)[C@@](C)(O)[C@@]12O[C@]13c1cc(O)c4c(c1N[C@H]2C#C/C=C\C#C[C@H]3O)C(=O)c1c(O)c(OC)cc(-n2[nH]c(=O)n(-c3ccccc3)c2=O)c1C4=O` ?
// result 499

// query Field entry: C[C@@H](O)C12O[C@]13c1cc(O)c4c(c1N[C@H]2C#C/C=C\C#C[C@H]3O)C(=O)c1c(O)cccc1C4=O (stereo partly specified)
// result 0.06

// query Then `COc1ccc2c(c1O)C(=O)c1c3c(cc(O)c1C2=O)[C@@]12O[C@@]1([C@](C)(O)[C@H](O)C(=O)O)[C@H](C#C/C=C\C#C[C@H]2O)N3` ?
// result 10.1

// query Continue with `COc1ccc2c(c1OC)C(=O)c1c3c(cc(OC)c1C2=O)[C@@]12O[C@@]1([C@@H](C)O)[C@H](C#C/C=C\C#C[C@H]2O)N3`
// result 787

// query Another molecule to check: `COc1ccc2c(c1OC)C(=O)c1c3c(cc(O)c1C2=O)[C@@]12O[C@@]1([C@@H](C)O)[C@H](C#C/C=C\C#C[C@H]2O)N3`
// result 1.3

// query Would you mind doing `COC(=O)[C@@H](O)[C@@](C)(O)[C@@]12O[C@]13c1cc(O)c4c(c1N[C@H]2C#C/C=C\C#C[C@H]3O)C(=O)c1c(ccc(OC)c1O)C4=O` as well?
// result 0.1

###

# System: Calf thymus DNA
# Assay comment: Binding affinity to calf thymus DNA assessed as change in gibbs free energy in presence of ethidium bromide by competitive binding based fluorescence spectroscopic analysis
# Assay type: nucleic-acid assay
# Assay context: Bos taurus
Test readout: deltaG (kcal/mol)
Please give a number only; it is taken to be in kcal/mol.

// query Which deltaG value belongs to `O=C1c2ccccc2C(=O)c2c3c(cc(O)c21)[C@@]12O[C@@]1([C@H](O)CO)[C@H](C#C/C=C\C#C[C@H]2O)N3` ?
// result -8.31

// query // next record `COC1=C(C(=O)O)[C@H](C)[C@@]23O[C@]24c2cc(O)c5c(c2N[C@H]3C#C/C=C\C#CC14)C(=O)c1ccccc1C5=O`
// result -3.79

// query Do the same for `COc1ccc2c(c1O)C(=O)c1c3c(cc(O)c1C2=O)[C@@]12O[C@@]1([C@@H](C)O)[C@H](C#C/C=C\C#C[C@H]2O)N3` please
// result -8.26

// query Same for `COc1cccc2c1C(=O)c1c(O)c3c(c(O)c1C2=O)C[C@@](O)(C(=O)CO)C[C@@H]3O[C@H]1C[C@H](N)[C@H](O)[C@H](C)O1`
// result -9.68

// query Param item: `O=C1c2cccc(O)c2C(=O)c2c3c(cc(O)c21)[C@@]12O[C@@]1([C@H](O)CO)[C@H](C#C/C=C\C#C[C@H]2O)N3`
// result -8.41

// query Similarly, `COC(=O)[C@@H](O)[C@@](C)(O)[C@@]12O[C@]13c1cc(O)c4c(c1N[C@H]2C#C/C=C\C#C[C@H]3O)C(=O)c1c(ccc(OC)c1O)C4=O` ?
// result -8.56

###

# Assay comment: Cytotoxicity against human HUVEC cells incubated for 72 hrs by CCK-8 assay
# Format: toxicity, cell-based
Exercise: for every item that follows, state its recorded IC50 at 72 h.
Write the number in nM without appending the unit.

// query Quick check: IC50 at 72 h of `COc1ccc2c(c1OC)C(=O)c1c3c(cc(O)c1C2=O)[C@@]12O[C@@]1([C@@H](C)O)[C@H](C#C/C=C\C#C[C@H]2O)N3` ?
// result 6.8

// query Also check `COC(=O)[C@@H](O)[C@@](C)(O)[C@@]12O[C@]13c1cc(O)c4c(c1N[C@H]2C#C/C=C\C#C[C@H]3O)C(=O)c1cc(OC)ccc1C4=O`
// result 15.5

// query Try the compound C[C@@H](O)C12O[C@]13c1cc(O)c4c(c1N[C@H]2C#C/C=C\C#C[C@H]3O)C(=O)c1c(O)cccc1C4=O (stereo partly specified)
// result 0.2

// query Also check `O=C1c2cccc(O)c2C(=O)c2c3c(cc(O)c21)[C@@]12O[C@@]1([C@H](O)CO)[C@H](C#C/C=C\C#C[C@H]2O)N3`
// result 0.8

// query How about `COC(=O)[C@@H](O)[C@@](C)(O)[C@@]12O[C@]13c1cc(O)c4c(c1N[C@H]2C#C/C=C\C#C[C@H]3O)C(=O)c1c(ccc(OC)c1O)C4=O` ?
// result 0.4

// query Now consider `COc1ccc2c(c1OC)C(=O)c1c3c(cc(OC)c1C2=O)[C@@]12O[C@@]1([C@@H](C)O)[C@H](C#C/C=C\C#C[C@H]2O)N3` .
// result 525

// query Try `COc1ccc2c(c1O)C(=O)c1c3c(cc(O)c1C2=O)[C@@]12O[C@@]1([C@@H](C)O)[C@H](C#C/C=C\C#C[C@H]2O)N3` next.
// result 0.2

// query Entry `COC(=O)[C@@H](O)[C@@](C)(O)[C@@]12O[C@]13c1cc(O)c4c(c1N[C@H]2C#C/C=C\C#C[C@H]3O)C(=O)c1c(O)c(OC)cc(-n2[nH]c(=O)n(-c3ccccc3)c2=O)c1C4=O` please
// result 946

// query Okay, and `O=C1c2ccccc2C(=O)c2c3c(cc(O)c21)[C@@]12O[C@@]1([C@H](O)CO)[C@H](C#C/C=C\C#C[C@H]2O)N3` ?
// result 0.3

// query Then this compound: `COc1cc(Br)c2c(c1O)C(=O)c1c3c(cc(O)c1C2=O)[C@@]12O[C@@]1([C@@H](C)O)[C@H](C#C/C=C\C#C[C@H]2O)N3`
// result 22.7

// query Also, `COc1ccc2c(c1O)C(=O)c1c3c(cc(O)c1C2=O)[C@@]12O[C@@]1([C@](C)(O)[C@H](O)C(=O)O)[C@H](C#C/C=C\C#C[C@H]2O)N3` please.
// result 6.8
